# assayed_target: human plasma-derived Factor IXa (human, UniProt P00740 47-191; P00740 227-461)
# Sequence (P00740 47-191, chain 1 of 2): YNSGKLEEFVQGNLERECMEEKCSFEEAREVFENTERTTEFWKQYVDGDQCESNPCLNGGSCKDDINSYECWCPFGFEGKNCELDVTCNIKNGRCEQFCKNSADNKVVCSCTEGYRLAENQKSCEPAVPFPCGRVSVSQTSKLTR
# Sequence (P00740 227-461, chain 2 of 2): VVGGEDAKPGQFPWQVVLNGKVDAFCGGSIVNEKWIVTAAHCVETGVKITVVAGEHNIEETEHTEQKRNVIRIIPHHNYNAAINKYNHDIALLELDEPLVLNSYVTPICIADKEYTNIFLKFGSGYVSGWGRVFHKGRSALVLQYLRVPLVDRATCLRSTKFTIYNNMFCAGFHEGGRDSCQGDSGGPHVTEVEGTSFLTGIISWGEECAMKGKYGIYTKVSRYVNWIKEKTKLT
# experiment_summary: cell-based or functional assay
Stimulation Index, FXa generation assay, 800 nM OA antibody vs 3000 fold: at or above is yes (1), below is no (0).

{"binder": "one-armed (OA) mAb11-0723 (antibody, V domains shown) VH: EVQLVESGGGLVQPGRSLKLSCAASGFTFDDYAMHWVRQVPGKGLEWVSGISWKGDIGGYVDSVKGRFTISRDNAKNSLYLQLNSLRAEDTALYYCAKSYGSGSFYNAFDSWGQGTLVTVSS VL: DIQMTQSPSTLSASAGDRVTITCRASQSISSWLAWYQQKPGKAPKFLIYKASRLDRGTPSRFSGSGSGTEFSLTISSLQPDDFATYYCLEYSSYIRTFGQGTKVEIK", "assigned_class": "yes (1)"}
{"binder": "one-armed (OA) mAb11-1276 (antibody, V domains shown) VH: EVQLVESGGGLVQPGRSLRLSCAASGFTFHDYAMHWVRQVPGKGLEWVSGISWKGDIGGYVDSVKGRFTISRDNEKNSLYLQMNSLRAEDTALYYCVKSYGSGSFYNAFDSWGQGTLVTVSS VL: DIQMTQSPSTLSASVGDRVTITCRASQSISSWLAWYQQKPGKAPKFLIYKASRLDRGTPSRFSGSGSGTEFSLTISSLSPDDFATYYCLEYSSYIRTFGQGTKVEIK", "assigned_class": "no (0)"}
{"binder": "one-armed (OA) mAb11-0047 (antibody, V domains shown) VH: EVQLVESGGGLVQPGRSLRLSCAASGFTFHDYAMHWVRQAPGKGLEWVSGISWRGDIKGYVDSVKGRFTISRDNAKNSLYLQLNSLRAEDTALYYCAKSYGSGSFYNAFDSWGQGTLVTVSS VL: DIQMTQSPSTLSASAGDRVTITCRASKSISSWLAWYQQKPGKAPKFLIYKASRLDRGTPQRFSGSGSGTEFSLTISSLQPDDFATYYCLEYSSYIRTFGQGTKVEIK", "assigned_class": "no (0)"}
{"binder": "one-armed (OA) mAb11-0933 (antibody, V domains shown) VH: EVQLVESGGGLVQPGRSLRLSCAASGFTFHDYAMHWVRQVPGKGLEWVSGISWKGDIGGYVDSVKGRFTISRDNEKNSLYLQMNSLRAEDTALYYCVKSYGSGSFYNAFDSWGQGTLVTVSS VL: DIQMTQSPSTLSASVGDRVTITCRASQSISSWLAWYQQKPGKAPKFLIYKASRLDRGNPSRFSGSGSGTEFSLTISSLQPDDFATYYCLEYSSYIRTFGQGTKVEIK", "assigned_class": "no (0)"}
{"binder": "one-armed (OA) mAb11-1042 (antibody, V domains shown) VH: EVQLVESGGGLVQPGRSLKLSCAASKFTFHDYAMHWVRQAPGKGLEWVSGISWKGDIGGYVDSVKGRFTISRDNAKNSLYLQMNSLRAEDTALYYCAKSYGSGSFYNAFDSWGQGTLVTVSS VL: DIQMTQSPSTLSASVGDRVTITCRASQSISSWLAWYQQKPGKAPKFLIYKASKLERGTPSRFSGSGSGTEFTLTISSLQPDDFATYYCLEYSSYIRTFGQGTKVEIK", "assigned_class": "yes (1)"}
